Entries and their measured reverse-splicing fitness follow.
B1: Azoarcus group I ribozyme (parent)
chain: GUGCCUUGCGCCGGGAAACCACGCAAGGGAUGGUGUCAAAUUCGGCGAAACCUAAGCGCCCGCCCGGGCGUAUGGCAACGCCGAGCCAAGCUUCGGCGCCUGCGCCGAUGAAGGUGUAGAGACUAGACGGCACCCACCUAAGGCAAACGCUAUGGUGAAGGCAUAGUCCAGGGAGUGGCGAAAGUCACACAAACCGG

# Variants of: B1
# Assay Summary: reverse-splicing fitness (ratio to wild type); higher = more active; in vitro selection; Mg2+ level not given

| Mutant Name | reverse-splicing fitness |
| --- | --- |
| C82G A111U A120U A145G U176G | 0.00338 |
| C82U A111U A120U A145C C150U C169A U176C | 0.00253 |
| C82A A111U A120G A145U C169A U176G | 0.00477 |
| C82A A111U A120G A145U C150U C169A | 0.0101 |
| A111U A120G A145U C150U | 0.104 |
| C82G A111U A145C C150G U176A | 0.0157 |
| A111C A120G A145G | 0.189 |
| C82U A145U C150G C169U U176A | 0.00782 |
| C82U A111U A120U A145C C150G | 0.00588 |
| C82A A111U A120U A145G C169G U176A | 0.00391 |
| C82G A111C A120U A145U C150U C169A U176G | 0.00223 |
| C82U A120C A145G C150A C169G | 0.00829 |
| C82U A111G A145C C150A C169G U176C | 0.0112 |
| A111C A120U C150U C169A U176G | 0.00204 |
| A111U A120U C150G C169G U176G | 0.00237 |
| C82U A111U A120C A145G C150A C169A U176C | 0.0189 |
| A120U C150A C169U U176A | 0.0178 |
| C82U A111C A120G A145C C150G C169U U176C | 0.00897 |
| C82U A120G C150A U176A | 0.0116 |
| C82A A111U A120U C150G C169A | 0.00872 |
| A120G C169U U176A | 0.179 |
| C82G A111C A145U C150A C169G | 0.0077 |
| C82G A111U A120U A145C C150U C169G U176C | 0.00262 |
| C82U A120G A145C C169G U176C | 0.0161 |
| C82U A111C A145C C150A U176A | 0.0114 |
| C82A A111C A120G A145U C150A U176C | 0.02 |
| A145C C169A | 0.167 |
| C82U A111C A120U A145G C169A U176A | 0.00295 |
| C82A A120C A145U C150G C169U U176C | 0.00999 |
| C82A A120G A145U C150U | 0.0167 |
| A111C A120C A145G C150U C169G U176G | 0.00574 |
| C82A A111G A145U C150A C169G U176C | 0.016 |
| C82A A111C A120G A145C C150U C169G | 0.00775 |
| C82A A111U A120U A145C C150A C169G U176C | 0.00303 |
| C82G A111U A120C A145C C150A | 0.0109 |
| C82U A111U A120G A145G C150G C169A U176G | 0.00764 |
| C82G A111G A120G A145G C150A C169G U176G | 0.00618 |
| C82A A111U A120C A145G C150U C169A U176A | 0.0182 |
| A111G A120G A145C C150G C169G U176C | 0.00653 |
| A111U A120C A145C C169A U176G | 0.00493 |
| C82G A111C A120U C150A C169G U176C | 0.00487 |
| C82G A111U A120U A145G C150G C169A U176G | 0.00502 |
| A111C A120U C169U | 0.0792 |
| C82A A111C A120C A145G C169G | 0.00846 |
| C82G A111U A120C C150G C169U U176A | 0.00756 |
| C82U A111U A120C A145C C150G C169A U176C | 0.00591 |
